Attribution: paper PMC9911399

- TARGET_ENTITY: T1, RBFOX1 RRM (Homo sapiens, UniProt Q9NWB1 109-208)
- T1 sequence: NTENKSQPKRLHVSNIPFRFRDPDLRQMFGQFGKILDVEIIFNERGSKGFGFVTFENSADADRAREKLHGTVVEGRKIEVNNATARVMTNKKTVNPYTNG
- ASSAY_PROTOCOL: EMSA; HiTS-Eq, 1 nM pool, 10 min; buffer printed only for the single-RNA assays: 10 mM Tris pH 7.5, 150 mM NaCl, 3.4 mM EDTA, 0.001% NP-40, 30 C
- CONDITION_NOTES: tags: His6 N-terminal (pET28a); label: 5' 32P
Whole data set: some 16,000 sequences, median “ka relative to ugcaugu” near 0.0091, cut for the highest 2% near 0.032. What follows is part of a selection rich in the highest values, with near analogues and random picks from the rest.
PROPERTY: binding signal

**Q:** Report binding signal for GGGGCGU (DNA:RNA) RNA: GGGAGACCGGAAUUCAGAUUGUCCGGGGCGUUUAAAUCCCGUCGUAGCCACCA DNA 1: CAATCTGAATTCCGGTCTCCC DNA 2: TGGTGGCTACGACGGGATT please.
**A:** 0.0374 KA relative to UGCAUGU

**Q:** How about this binder: GUGACCG (DNA:RNA) RNA: GGGAGACCGGAAUUCAGAUUGUCCGUGACCGUUAAAUCCCGUCGUAGCCACCA DNA 1: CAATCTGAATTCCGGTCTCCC DNA 2: TGGTGGCTACGACGGGATT
**A:** 0.0167 KA relative to UGCAUGU

**Q:** Now the same for GUUAAUG (DNA:RNA) RNA: GGGAGACCGGAAUUCAGAUUGUCCGUUAAUGUUAAAUCCCGUCGUAGCCACCA DNA 1: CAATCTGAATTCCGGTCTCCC DNA 2: TGGTGGCTACGACGGGATT
**A:** 0.0118 KA relative to UGCAUGU

**Q:** Now the binder GUGAAUG (DNA:RNA) RNA: GGGAGACCGGAAUUCAGAUUGUCCGUGAAUGUUAAAUCCCGUCGUAGCCACCA DNA 1: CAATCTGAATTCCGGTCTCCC DNA 2: TGGTGGCTACGACGGGATT
**A:** 0.0355 KA relative to UGCAUGU
